- Method notes: Toxicokinetics of infigratinib in juvenile rat plasma after oral gavage
- Type: in vivo, Crl:WI(Han) rat
- Assay conditions: female, Crl:WI(Han), rat, plasma, po, 0.1 mg/kg/day, Cmax, Female rats, 0.1 mg/kg/day oral, PND 7
Measured property: Cmax (ng/mL)
Reply numerically in ng/mL, unit not repeated.

Task item: Answer with the recorded Cmax for the molecule listed here: CCN1CCN(c2ccc(Nc3cc(N(C)C(=O)Nc4c(Cl)c(OC)cc(OC)c4Cl)ncn3)cc2)CC1
Reply: 4.18

* * *

- Method notes: Toxicokinetics of infigratinib in juvenile rat plasma after oral gavage
- Type: in vivo, Crl:WI(Han) rat
- Assay conditions: male, Crl:WI(Han), rat, plasma, po, 0.3 mg/kg/day, Tmax, Male rats, 0.3 mg/kg/day oral, PND 12
Measured property: Tmax (h)
Response body: numeric value in h, unit text excluded.

Task item: Identify measured Tmax associated with CCN1CCN(c2ccc(Nc3cc(N(C)C(=O)Nc4c(Cl)c(OC)cc(OC)c4Cl)ncn3)cc2)CC1 [infigratinib]
Reply: 3
